Hello, the source for this data is ChEMBL document CHEMBL2202978, in case you need it.

# test: Oral bioavailability in Sprague-Dawley rat at 6.15 mg/kg
# Format: ADME, organism-based
# conditionNotes: in vivo
measure: bioavailability (%)
One number for each entry, in %.

Input: For COc1ccc2c(O[C@@H]3C[C@H]4C(=O)N[C@]5(C(=O)NS(=O)(=O)C6CC6)C[C@H]5/C=C\CCCCC[C@H](NC(=O)OC(C)(C)C)C(=O)N4C3)cc(-c3nc(C4CC4)cs3)nc2c1C , what is its reported bioavailability?
Output: 10

----------
# test: AUC in Sprague-Dawley rat at 1 mg/kg, iv
# Format: ADME, organism-based
# Parameters: dose 1 mg/kg, route intravenous
# conditionNotes: plasma
measure: AUC
Write the figure, then the unit, nothing else.

• CCN(CC)C(=O)N[C@H]1CCCCC/C=C\[C@@H]2C[C@@]2(C(=O)NS(=O)(=O)C2CC2)NC(=O)[C@@H]2C[C@@H](Oc3cc(-c4nc(C5CC5)cs4)nc4c(C)c(OC)ccc34)CN2C1=O = 127 ng·h/mL

Please turn your attention to the following entry.
Input: For COc1ccc2c(O[C@@H]3C[C@H]4C(=O)N[C@]5(C(=O)NS(=O)(=O)C6CC6)C[C@H]5/C=C\CCCCC[C@H](NC(=O)C5(OC)CCC5)C(=O)N4C3)cc(-c3nc(C4CC4)cs3)nc2c1C , what is its reported AUC?
Output: 117 ng·h/mL

----------
# Tested on: Hepatitis C virus
# test: Antiviral activity against HCV subtype 1b expressing NS3/4A D168A mutant protease infected in ET cells after 72 hrs
# Assay type: functional, organism-based, Hepacivirus hominis
# conditionNotes: genotype 1b
pEC50: −log10 of the molar value.
Decision: pEC50 >= 7 yields Met, all other cases yield Not met.

These recorded examples may help you get a feel for the data.
* COc1ccc2c(O[C@@H]3C[C@H]4C(=O)N[C@]5(C(=O)NS(=O)(=O)C6CC6)C[C@H]5/C=C\CCCCC[C@H](N)C(=O)N4C3)cc(-c3nc(C4CC4)cs3)nc2c1C | Not met
* COc1ccc2c(O[C@@H]3C[C@H]4C(=O)N[C@]5(C(=O)NS(=O)(=O)C6CC6)C[C@H]5/C=C\CCCCC[C@H](N/C(=N\C#N)NC(C)(C)C)C(=O)N4C3)cc(-c3nc(C4CC4)cs3)nc2c1C | Not met
* CCN(CC)C(=O)N[C@H]1CCCCC/C=C\[C@@H]2C[C@@]2(C(=O)NS(=O)(=O)C2CC2)NC(=O)[C@@H]2C[C@@H](Oc3cc(-c4nc(C5CC5)cs4)nc4c(C)c(OC)ccc34)CN2C1=O | Met

Kindly review the next molecule as well.
Input: Is pEC50 for COc1ccc2c(O[C@@H]3C[C@H]4C(=O)N[C@]5(C(=O)NS(=O)(=O)C6CC6)C[C@H]5/C=C\CCCCC[C@H](N5CCCC5=O)C(=O)N4C3)cc(-c3nc(C4CC4)cs3)nc2c1C at or above 7?
Output: Not met

----------
# test: Clearance in Sprague-Dawley rat at 1 mg/kg, iv
# Assay type: ADME, organism-based
# Set-up: dose 1 mg/kg, route intravenous
# conditionNotes: in vivo
measure: clearance (mL/min/kg)
Answers are plain numbers, in mL/min/kg.

- COc1ccc2c(O[C@@H]3C[C@H]4C(=O)N[C@]5(C(=O)NS(=O)(=O)C6CC6)C[C@H]5/C=C\CCCCC[C@H](NC(=O)C5(OC)CCC5)C(=O)N4C3)cc(-c3nc(C4CC4)cs3)nc2c1C: 144

Please turn your attention to the following entry.
Input: For CCN(CC)C(=O)N[C@H]1CCCCC/C=C\[C@@H]2C[C@@]2(C(=O)NS(=O)(=O)C2CC2)NC(=O)[C@@H]2C[C@@H](Oc3cc(-c4nc(C5CC5)cs4)nc4c(C)c(OC)ccc34)CN2C1=O , what is its reported clearance?
Output: 152

----------
# System: Hepatitis C virus
# test: Antiviral activity against HCV subtype 1b expressing NS3/4A D168A mutant protease infected in ET cells after 72 hrs
# Assay type: functional, organism-based, Hepacivirus hominis
# conditionNotes: genotype 1b
hey, just use Yes if measured EC50 is less than 90 nM, otherwise No

• CC(C)(C)OC(=O)N[C@H]1CCCCC/C=C\[C@@H]2C[C@@]2(C(=O)NS(=O)(=O)C2CC2)NC(=O)[C@@H]2C[C@@H](OC(=O)N3Cc4cccc(F)c4C3)CN2C1=O = Yes
• CCC[C@H](NC(=O)[C@@H]1[C@H]2CCC[C@H]2CN1C(=O)[C@@H](NC(=O)[C@@H](NC(=O)c1cnccn1)C1CCCCC1)C(C)(C)C)C(=O)C(=O)NC1CC1 = No

Input: Hello, is EC50 of the following compound strictly smaller than 90 nM? COc1ccc2c(O[C@@H]3C[C@H]4C(=O)N[C@]5(C(=O)NS(=O)(=O)C6CC6)C[C@H]5/C=C\CCCCC[C@H](NC(=O)N(C)C)C(=O)N4C3)cc(-c3nc(C4CC4)cs3)nc2c1C
Output: Yes

Input: How about COc1ccc2c(O[C@@H]3C[C@H]4C(=O)N[C@]5(C(=O)NS(=O)(=O)C6CC6)C[C@H]5/C=C\CCCCC[C@H](N5CCOC5=O)C(=O)N4C3)cc(-c3nc(C4CC4)cs3)nc2c1C ?
Output: No

Input: How about COc1ccc2c(O[C@@H]3C[C@H]4C(=O)N[C@]5(C(=O)NS(=O)(=O)C6CC6)C[C@H]5/C=C\CCCCC[C@H](NC(=O)C(=O)N5CCCCC5)C(=O)N4C3)cc(-c3nc(C4CC4)cs3)nc2c1C ?
Output: Yes

Input: How about COc1ccc2c(O[C@@H]3C[C@H]4C(=O)N[C@]5(C(=O)NS(=O)(=O)C6CC6)C[C@H]5/C=C\CCCCC[C@H](NC(=O)C5(OC)CCCC5)C(=O)N4C3)cc(-c3nc(C4CC4)cs3)nc2c1C ?
Output: Yes

----------
# test: Inhibition of HCV subtype 1a NS3/4A protease (Ac-DE-Dap(QXL520)-EE-Abu-psi-[COO]-ASC(5-FAMsp)-NH2 as substrate by FRET analysis
# Design: species or system Hepatitis C virus subtype 1a
measure: pIC50
Answers are plain numbers, as −log10 of the molar value.

Consider the worked cases shown below.
• COc1ccc2c(O[C@@H]3C[C@H]4C(=O)N[C@]5(C(=O)NS(=O)(=O)C6CC6)C[C@H]5/C=C\CCCCC[C@H](NC(=O)C5(OC)CCCC5)C(=O)N4C3)cc(-c3nc(C4CC4)cs3)nc2c1C = 8.40
• COc1ccc2c(O[C@@H]3C[C@H]4C(=O)N[C@]5(C(=O)NS(=O)(=O)C6CC6)C[C@H]5/C=C\CCCCC[C@H](NC(=O)C5(OC)CC5)C(=O)N4C3)cc(-c3nc(C4CC4)cs3)nc2c1C = 8.80
• COc1ccc2c(O[C@@H]3C[C@H]4C(=O)N[C@]5(C(=O)NS(=O)(=O)C6CC6)C[C@H]5/C=C\CCCCC[C@H](NC(=O)C(=O)NC5CCCCC5)C(=O)N4C3)cc(-c3nc(C4CC4)cs3)nc2c1C = 8.20

// input: 6 compounds below; output: pIC50 for each
1. COc1ccc2c(O[C@@H]3C[C@H]4C(=O)N[C@]5(C(=O)NS(=O)(=O)C6CC6)C[C@H]5/C=C\CCCCC[C@H](N5CCOC5=O)C(=O)N4C3)cc(-c3nc(C4CC4)cs3)nc2c1C
2. COc1ccc2c(O[C@@H]3C[C@H]4C(=O)N[C@]5(C(=O)NS(=O)(=O)C6CC6)C[C@H]5/C=C\CCCCC[C@H](N)C(=O)N4C3)cc(-c3nc(C4CC4)cs3)nc2c1C
3. COc1ccc2c(O[C@@H]3C[C@H]4C(=O)N[C@]5(C(=O)NS(=O)(=O)C6CC6)C[C@H]5/C=C\CCCCC[C@H](NC(=O)N(C)C)C(=O)N4C3)cc(-c3nc(C4CC4)cs3)nc2c1C
4. COc1ccc2c(O[C@@H]3C[C@H]4C(=O)N[C@]5(C(=O)NS(=O)(=O)C6CC6)C[C@H]5/C=C\CCCCC[C@H](NC(=O)C(=O)N5CCCC5)C(=O)N4C3)cc(-c3nc(C4CC4)cs3)nc2c1C
5. COc1ccc2c(O[C@@H]3C[C@H]4C(=O)N[C@]5(C(=O)NS(=O)(=O)C6CC6)C[C@H]5/C=C\CCCCC[C@H](NC(=O)C(=O)NC(C)(C)C)C(=O)N4C3)cc(-c3nc(C4CC4)cs3)nc2c1C
6. COc1ccc2c(O[C@@H]3C[C@H]4C(=O)N[C@]5(C(=O)NS(=O)(=O)C6CC6)C[C@H]5/C=C\CCCCN(C)C(=O)[C@@H]4C3)cc(-c3nc(C(C)C)cs3)nc2c1C

Output:
1: 8.60; 2: 8.89; 3: 9.30; 4: 8.89; 5: 8.40; 6: 8.00
